Source listed as PubChem BioAssay (NCI).

tested on: OVCAR-5 ovarian; assay: NCI-60 one-dose screen, 48 h; details: 10 µM unless noted
This is part of a sample that, as a whole, favours compounds with a hit. Of some 83,000 tested, about 20% had one in any assay. Calls of active or inactive are those of the source. The calls were made as follows: active = growth percent below 10; inactive = the rest.
I would appreciate it if you answered using one of these outcomes: class 1 = active, class 0 = inactive

Observe how each entry below is paired with its result.
In [3]: df
Out[3]:
                                   molecule  class_name
0  O=C1CC(c2ccc3c(c2)OCO3)c2ncn(-c3ccc(Cl)cc3)c2N1 (stereo not given)     class 0
1   O=c1[nH]ccc2c(S(=O)(=O)N3CCCNCC3)cccc12     class 0
2  O=C(Cc1ccc(/C=C/C(=O)c2ncc[nH]2)cc1)Nc1ccc(Br)cc1     class 0
3  O=C(NO)c1ccc(Cn2c(=O)n(CCc3ccccc3)c(=O)c3ccccc32)cc1     class 0
4  Cc1cnc(Nc2ccc(OCCN3CCCC3)cc2)nc1Nc1cccc(S(=O)(=O)NC(C)(C)C)c1     class 1
5  NC(=O)N1N=C(c2ccc(Cl)cc2)CC1c1cn(-c2ccccc2)nc1-c1ccc(Cl)cc1 (stereo not given)     class 0
6  O=C1C=CC2(NN=C(c3ccccc3)N2c2cccc(Cl)c2)C(Cl)=C1 (stereo not given)     class 0
7  CCOc1cccc(/C=N/NC(=O)c2ccccc2Nc2ccnc(C(F)(F)F)c2)c1O     class 0

Qu. What was the test verdict on CC(=Nc1ccccc1)C1=C(O)C(Cc2ccccc2)NC1=O (stereo not given) ?
Ans. class 0

Qu. What was the test verdict on CC[n+]1c(/C=C/C=C2\N(C)c3ccccc3C2(C)C)sc2ccccc21 ?
Ans. class 0

* * *

system: TK-10 renal; assay: NCI-60 one-dose screen, 48 h; settings: 10 µM unless noted
This is part of a sample that, as a whole, favours compounds with a hit. Of some 83,000 tested, about 20% had one in any assay. Active and inactive are the calls of the source. Rule for the calls: active = growth percent below 10; inactive = the rest.
I would appreciate it if you answered using one of these outcomes: active, inactive

                                 cpd_smiles  subject_of_test  class_name
0  C/C(=C(/c1ccc(Cl)cc1)c1ccc(OCCN2CCCCCC2)cc1)c1ccccc1      TK-10 renal    inactive

Qu. What was the test verdict on CC(C)(O)CC(=O)NCCn1ccc2ncnc(Nc3ccc(Oc4cccc(C(F)(F)F)c4)c(Cl)c3)c21 ?
Ans. active

Qu. What was the test verdict on CCn1cc(-c2ccnc3[nH]c(-c4cccc(CN(C)C)c4)cc23)c(-c2ccc(NC(=O)N(C)C)cc2)n1 ?
Ans. inactive

Qu. What was the test verdict on Clc1ccc2c(NCCNc3nc(N4CCCC4)nc4ccccc34)ccnc2c1 ?
Ans. active

Qu. What was the test verdict on COc1cc2c(cc1O)c(=O)n(CCN(C)C)c1c3cc4c(cc3ncc21)OCO4 ?
Ans. active

Qu. What was the test verdict on CCn1c(-c2nonc2N)nc2c(C#CC(C)(C)O)ncc(OC[C@H]3CCCNC3)c21 ?
Ans. inactive

Qu. What was the test verdict on FC(F)(F)c1ccc(CNc2ccc(Cc3c[nH]c4ncc(Cl)cc34)cn2)cn1 ?
Ans. inactive

Qu. What was the test verdict on COc1cc(Nc2ncc3c(n2)-c2ccc(Cl)cc2C(c2c(F)cccc2OC)=NC3)ccc1C(=O)O ?
Ans. inactive

Qu. What was the test verdict on CCN1CCN(Cc2ccc(-c3cc4c(N[C@H](C)c5ccccc5)ncnc4[nH]3)cc2)CC1 ?
Ans. active

* * *

tested on: BT-549 breast; test: NCI-60 one-dose screen, 48 h (100 = growth as untreated, 0 = no growth, -100 = all killed); details: 10 µM unless noted
Compounds without any hit were thinned out: in the full panel of roughly 83,000, 20% have a hit.
Catalogue of compounds with associated growth
Reply numerically in %, unit not repeated.

compound	value_measured
c1cc(OCCN2CCCCC2)cc(-c2n[nH]c3ccc(-c4ncn[nH]4)cc23)c1	70.3
O=C1CC(c2cccc(F)c2)c2c(n[nH]c2-c2ccc(Cl)cc2)N1 (stereo not drawn)	92.4
Cc1cc(O)cc(-c2c(-c3ccnc(-c4cccnc4)c3)cnn2C)c1	75.1

Qu. Reported growth for CCCCN1CCCC[C@@H]1C(=O)N[C@H](C(=O)N(C)[C@H](CCc1nc(C(=O)N[C@@H](Cc2ccccc2)C[C@H](C)C(=O)OC)cs1)C(C)C)C(C)C : what is it?
Ans. 52.3

* * *

Catalogue of molecules with associated growth
tested on: K-562 leukemia; assay: NCI-60 one-dose screen, 48 h (100 = growth as untreated, 0 = no growth, -100 = all killed); details: 10 µM unless noted
The panel holds about 83,000 compounds, 20% with a hit somewhere; the sample as a whole holds those more often.
Reply numerically in %, unit not repeated.

Reference set (5 entries):
>>> print(df.to_string())
                                   molecule  experimental_readout  value_measured
0  C[C@@H](Nc1cc(F)cc(F)c1)c1cc(C(=O)N(C)C)cc2c(=O)cc(N3CCOCC3)oc12                growth            87.6
1  C=CCn1c(=O)c2cnc(Nc3ccc(N4CCN(C)CC4)cc3)nc2n1-c1cccc(C(C)(C)O)n1                growth            1.55
2  CCCCn1c(C)nc2ccc(Nc3nc(N4CCN(C)CC4)nc4nc[nH]c34)cc21                growth            83.2
3  N[C@@H]1CCCN(c2c(/C=C3\SC(=O)NC3=O)cccc2-c2ccccc2)C1                growth            33.1
4  COc1cc2nccc(Oc3ccc(NC(=O)Nc4cc(C)on4)c(Cl)c3)c2cc1OC                growth            5.94

Qu. Reported growth for CN(C)CCn1c(=O)c2c3cc4c(cc3n(CCN(C)C)c2c2ccc(Cl)cc21)OCO4 : what is it?
Ans. -17.8

Qu. Reported growth for O=C(O)c1ccc2c(c1)nc(Nc1cccc(Cl)c1)c1ccncc12 : what is it?
Ans. 8.63

Qu. Reported growth for O=C(Nc1cccc(Cl)c1)Nc1ncc(CCNc2ncnc3ccsc23)s1 : what is it?
Ans. 13.8

* * *

test system: MDA-MB-231 breast; assay: NCI-60 one-dose screen, 48 h; conditions: 10 µM unless noted
The panel holds about 83,000 compounds, 20% with a hit somewhere; the sample as a whole holds those more often. Activity calls are given as the source filed them. Rule for the calls: active = growth percent below 10; inactive = the rest.
I would appreciate it if you answered using one of these outcomes: active, inactive

Qu. What was the test verdict on CCN1CCN(c2nc(C)cc(N(CCNc3ccnc4cc(Cl)ccc34)Cc3ccc4c(c3)OCO4)n2)CC1 ?
Ans. active

Qu. What was the test verdict on O=C(NC1CCNCC1)c1[nH]ncc1NC(=O)c1c(Cl)cccc1Cl ?
Ans. active

Qu. What was the test verdict on NC(=O)N1N=C(c2ccc(Cl)cc2)CC1c1cn(-c2ccccc2)nc1-c1ccc(Cl)cc1 (configuration not stated) ?
Ans. inactive

Qu. What was the test verdict on COc1cnc2c(c1)C(=O)c1c-2n(CCCNC2=NCCS2)c(=O)c2cc(Cl)ccc12 ?
Ans. active

Qu. What was the test verdict on CCc1nc2ccc(Cc3ccc(C(=O)NO)cc3)cc2c(=O)n1CCc1ccccc1 ?
Ans. active

Qu. What was the test verdict on Cc1cccc(C)c1N1C(c2ccccc2)=NNC12C=CC(=O)c1c(O)cccc12 (configuration not stated) ?
Ans. inactive

Qu. What was the test verdict on CNC(=O)c1ccc(Nc2ncc(C(F)(F)F)c(NCc3nccnc3N(C)S(C)(=O)=O)n2)cc1 ?
Ans. active

Qu. What was the test verdict on C[C@@H](Oc1cc(C(=O)Nc2ccc(C(=O)N3CCN(C)CC3)cc2)nnc1N)c1c(Cl)ccc(F)c1Cl ?
Ans. inactive

Qu. What was the test verdict on CN1[C@@H]2CC[C@H]1/C(=C\c1ccccc1)C1=C2[C@@H](c2ccccc2)C(C#N)=C(N)O1 ?
Ans. inactive

Qu. What was the test verdict on CCc1nc(C(N)=O)c(Nc2ccc(N3CCC(N4CCN(C)CC4)CC3)c(OC)c2)nc1NC1CCOCC1 ?
Ans. inactive

* * *

system: DU-145 prostate; test: NCI-60 one-dose screen, 48 h; settings: 10 µM unless noted
About 83,000 compounds went through this panel and 20% of them were active in at least one assay; those are over-represented in the sample as a whole. Active and inactive are the calls of the source. How the source made its calls: active means growth percent below 10; inactive means the rest.
I would appreciate it if you answered using one of these outcomes: 1.0 for active, 0.0 for inactive

Observe how each entry below is paired with its result.
                                   compound  class_name
0  C=CCC(=O)N[C@H](/C=C/C(=O)O)Cc1ccc(-c2cc(Cl)cc(Cl)c2)cc1         0.0
1  CCc1nc2cc(/C=C/C(=O)NO)ccc2c(=O)n1CCc1ccc(F)cc1         1.0

Now look at this one.
Qu. What was the test verdict on CC(=O)c1cnc2ccc(-c3cc(Cl)c(O)c(Cl)c3)nc2c1NC1CCC(CN(C)C)CC1 (stereo not drawn) ?
Ans. 1.0
